Cited source: ChEMBL document CHEMBL1275486

Test system: Escherichia coli
ASSAY: Activity of Escherichia coli beta-lactamase VIM-1 by spectrophotometry
QUANTITY KIND: kcat
Could you give the number and then its unit, please?

SMILES DATA: O=C(Cc1cccs1)N[C@@H]1C(=O)N2C(C(=O)[O-])=C(C[n+]3ccccc3)CS[C@H]12
RESULT: 315 s⁻¹
--
SMILES DATA: CC(C)(O/N=C(\C(=O)N[C@@H]1C(=O)N2C(C(=O)[O-])=C(C[n+]3ccccc3)CS[C@H]12)c1csc(N)n1)C(=O)O
RESULT: 60 s⁻¹
--
SMILES DATA: CC1(C)S[C@@H]2[C@H](NC(=O)[C@H](N)c3ccccc3)C(=O)N2[C@H]1C(=O)O
RESULT: 35 s⁻¹
--
SMILES DATA: O=C(Cc1cccs1)N[C@@H]1C(=O)N2C(C(=O)O)=C(/C=C/c3ccc([N+](=O)[O-])cc3[N+](=O)[O-])CS[C@H]12
RESULT: 95 s⁻¹
--
SMILES DATA: CC1(C)[C@H](C(=O)O)N2C(=O)C[C@H]2S1(=O)=O
RESULT: 10 s⁻¹

Below is a list of compounds. For each, state its recorded kcat.
1. CO[C@@]1(NC(=O)Cc2cccs2)C(=O)N2C(C(=O)O)=C(COC(N)=O)CS[C@@H]21
2. CO/N=C(\C(=O)N[C@@H]1C(=O)N2C(C(=O)O)=C(COC(C)=O)CS[C@H]12)c1csc(N)n1
3. CCN1CCN(C(=O)N[C@@H](C(=O)N[C@@H]2C(=O)N3[C@@H]2SC(C)(C)[C@@H]3C(=O)O)c2ccccc2)C(=O)C1=O

Result block:
["26 s⁻¹", "170 s⁻¹", "1900 s⁻¹"]

###

Test system: Escherichia coli
ASSAY: Activity of Escherichia coli beta-lactamase VIM-1 by spectrophotometry
API: label(entry) gives satisfied if the entry's Km is strictly smaller than 80 µM; on equality or larger values it gives not satisfied.

Worked examples follow.
COMPOUND: O=C(Cc1cccs1)N[C@@H]1C(=O)N2C(C(=O)O)=C(/C=C/c3ccc([N+](=O)[O-])cc3[N+](=O)[O-])CS[C@H]12
ASSIGNED LABEL: satisfied

COMPOUND: O=C(Cc1cccs1)N[C@@H]1C(=O)N2C(C(=O)[O-])=C(C[n+]3ccccc3)CS[C@H]12
ASSIGNED LABEL: satisfied

COMPOUND: CO/N=C(\C(=O)N[C@@H]1C(=O)N2C(C(=O)O)=C(COC(C)=O)CS[C@H]12)c1csc(N)n1
ASSIGNED LABEL: not satisfied

COMPOUND: CC(=O)OCC1=C(C(=O)O)N2C(=O)[C@@H](NC(=O)Cc3cccs3)[C@H]2SC1
ASSIGNED LABEL: satisfied

COMPOUND: CO[C@@]1(NC(=O)Cc2cccs2)C(=O)N2C(C(=O)O)=C(COC(N)=O)CS[C@@H]21
ASSIGNED LABEL: not satisfied

Query block: Consider the compound CC(C)(O/N=C(\C(=O)N[C@@H]1C(=O)N2C(C(=O)[O-])=C(C[n+]3ccccc3)CS[C@H]12)c1csc(N)n1)C(=O)O . Is its Km strictly less than 80 µM?
Result block: not satisfied

Query block: Decide: Km of CC1(C)S[C@@H]2[C@H](NC(=O)C(C(=O)O)c3ccccc3)C(=O)N2[C@H]1C(=O)O (stereo partly drawn) strictly below 80 µM?
Result block: satisfied

Query block: Km under 80 µM? Item: CCN1CCN(C(=O)N[C@@H](C(=O)N[C@@H]2C(=O)N3[C@@H]2SC(C)(C)[C@@H]3C(=O)O)c2ccccc2)C(=O)C1=O
Result block: not satisfied

###

Consider the following compounds; for each one, report its log10 Km.
Tested on: Escherichia coli
ASSAY: Activity of Escherichia coli beta-lactamase VIM-1 by spectrophotometry
Recorded Km (log10, µM)

Solved entries:
COMPOUND: CO[C@@]1(NC(=O)C(C(=O)O)c2ccc(O)cc2)C(=O)N2C(C(=O)O)=C(CSc3nnnn3C)CO[C@@H]21 (some centres not stated)
TARGET: Escherichia coli
RECORDED NUMBER: 2.65
//
COMPOUND: C[C@]1(Cn2ccnn2)[C@H](C(=O)O)N2C(=O)C[C@H]2S1(=O)=O
TARGET: Escherichia coli
RECORDED NUMBER: 2.53
//
COMPOUND: CO/N=C(\C(=O)N[C@@H]1C(=O)N2C(C(=O)O)=C(COC(N)=O)CS[C@H]12)c1ccco1
TARGET: Escherichia coli
RECORDED NUMBER: 1.62
//
COMPOUND: CO/N=C(\C(=O)N[C@@H]1C(=O)N2C(C(=O)[O-])=C(C[N+]3(C)CCCC3)CS[C@H]12)c1csc(N)n1
TARGET: Escherichia coli
RECORDED NUMBER: 2.18
//
COMPOUND: CC1(C)[C@H](C(=O)O)N2C(=O)C[C@H]2S1(=O)=O
TARGET: Escherichia coli
RECORDED NUMBER: 2.30

Now examine the next entry.
Query block: Recorded log10 Km for C[C@@H](O)[C@H]1C(=O)N2C(C(=O)O)=C(SCCNC=N)C[C@H]12 , please?
Result block: 0.18

###

Tested on: Escherichia coli
ASSAY: Ratio of Kcat to Km for Escherichia coli beta-lactamase VIM-1 by spectrophotometry
Provide the recorded kcat/Km for the entries that follow.
Give bare numbers, in µM⁻¹ s⁻¹.

Use these answered entries as a reference point.
SMILES DATA: CC(=O)OCC1=C(C(=O)O)N2C(=O)[C@@H](NC(=O)Cc3cccs3)[C@H]2SC1
UNIT ANNOTATION: µM⁻¹ s⁻¹
kcat/Km: 5.1
//
SMILES DATA: C[C@@H](O)[C@H]1C(=O)N2C(C(=O)O)=C(SCCNC=N)C[C@H]12
UNIT ANNOTATION: µM⁻¹ s⁻¹
kcat/Km: 0.13
//
SMILES DATA: CO/N=C(\C(=O)N[C@@H]1C(=O)N2C(C(=O)[O-])=C(C[N+]3(C)CCCC3)CS[C@H]12)c1csc(N)n1
UNIT ANNOTATION: µM⁻¹ s⁻¹
kcat/Km: 3.7
//
SMILES DATA: CO/N=C(\C(=O)N[C@@H]1C(=O)N2C(C(=O)O)=C(COC(C)=O)CS[C@H]12)c1csc(N)n1
UNIT ANNOTATION: µM⁻¹ s⁻¹
kcat/Km: 0.68
//
SMILES DATA: CO[C@@]1(NC(=O)Cc2cccs2)C(=O)N2C(C(=O)O)=C(COC(N)=O)CS[C@@H]21
UNIT ANNOTATION: µM⁻¹ s⁻¹
kcat/Km: 0.2

Here is another molecule to look at.
Query block: Using the record for C[C@]1(Cn2ccnn2)[C@H](C(=O)O)N2C(=O)C[C@H]2S1(=O)=O , report its kcat/Km.
Result block: 0.016

###

Give measured log10 of kcat/Km for each item. Keep answers brief.
Tested on: Escherichia coli
ASSAY: Ratio of Kcat to Km for Escherichia coli beta-lactamase VIM-1 by spectrophotometry
Field: value | Transform: log10 | Quantity: kcat/Km | Unit: M⁻¹ s⁻¹

Check out these entries, answers already filled in.
COMPOUND: CCN1CCN(C(=O)N[C@@H](C(=O)N[C@@H]2C(=O)N3[C@@H]2SC(C)(C)[C@@H]3C(=O)O)c2ccccc2)C(=O)C1=O
log10 of kcat/Km: 5.73

COMPOUND: O=C(Cc1cccs1)N[C@@H]1C(=O)N2C(C(=O)[O-])=C(C[n+]3ccccc3)CS[C@H]12
log10 of kcat/Km: 7.02

COMPOUND: CO[C@@]1(NC(=O)C(C(=O)O)c2ccc(O)cc2)C(=O)N2C(C(=O)O)=C(CSc3nnnn3C)CO[C@@H]21 (stereo partly drawn)
log10 of kcat/Km: 4.98

COMPOUND: C[C@@H](O)[C@H]1C(=O)N2C(C(=O)O)=C(S[C@@H]3CN[C@H](C(=O)N(C)C)C3)[C@H](C)[C@H]12
log10 of kcat/Km: 5.41

COMPOUND: CC1(C)S[C@@H]2[C@H](NC(=O)Cc3ccccc3)C(=O)N2[C@H]1C(=O)O
log10 of kcat/Km: 4.56

COMPOUND: CC1(C)S[C@@H]2[C@H](NC(=O)[C@H](NC(=O)N3CCNC3=O)c3ccccc3)C(=O)N2[C@H]1C(=O)O
log10 of kcat/Km: 7.10

COMPOUND: CO/N=C(\C(=O)N[C@@H]1C(=O)N2C(C(=O)O)=C(COC(N)=O)CS[C@H]12)c1ccco1
log10 of kcat/Km: 6.89

Proceed to the following item.
Query block: Could you tell me which log10 of kcat/Km is on file for CC1(C)[C@H](C(=O)O)N2C(=O)C[C@H]2S1(=O)=O ?
Result block: 4.70

###

Test system: Escherichia coli
ASSAY: Ratio of Kcat to Km for Escherichia coli beta-lactamase VIM-1 by spectrophotometry
Exercise: for every item that follows, state its recorded kcat/Km.
Give bare numbers, in M⁻¹ s⁻¹.

// below: answered compounds
COMPOUND: CC1(C)S[C@@H]2[C@H](NC(=O)C(C(=O)O)c3ccccc3)C(=O)N2[C@H]1C(=O)O (some centres undefined)
kcat/Km, M⁻¹ s⁻¹: 2.3e+06
//
COMPOUND: CC(C)(O/N=C(\C(=O)N[C@@H]1C(=O)N2C(C(=O)[O-])=C(C[n+]3ccccc3)CS[C@H]12)c1csc(N)n1)C(=O)O
kcat/Km, M⁻¹ s⁻¹: 75000
//
COMPOUND: O=C(Cc1cccs1)N[C@@H]1C(=O)N2C(C(=O)O)=C(/C=C/c3ccc([N+](=O)[O-])cc3[N+](=O)[O-])CS[C@H]12
kcat/Km, M⁻¹ s⁻¹: 5.6e+06

Please look at the following compound next.
Query block: Which value of kcat/Km has been reported for CC1(C)S[C@@H]2[C@H](NC(=O)[C@H](N)c3ccccc3)C(=O)N2[C@H]1C(=O)O in the records?
Result block: 38000
